Origin of values: patent US10703746B2

Listing of entries alongside the reported IC50.
Biological target: IDH1 R132C (Homo sapiens, UniProt O75874, R132C)
Sequence (O75874 whole entry R132C): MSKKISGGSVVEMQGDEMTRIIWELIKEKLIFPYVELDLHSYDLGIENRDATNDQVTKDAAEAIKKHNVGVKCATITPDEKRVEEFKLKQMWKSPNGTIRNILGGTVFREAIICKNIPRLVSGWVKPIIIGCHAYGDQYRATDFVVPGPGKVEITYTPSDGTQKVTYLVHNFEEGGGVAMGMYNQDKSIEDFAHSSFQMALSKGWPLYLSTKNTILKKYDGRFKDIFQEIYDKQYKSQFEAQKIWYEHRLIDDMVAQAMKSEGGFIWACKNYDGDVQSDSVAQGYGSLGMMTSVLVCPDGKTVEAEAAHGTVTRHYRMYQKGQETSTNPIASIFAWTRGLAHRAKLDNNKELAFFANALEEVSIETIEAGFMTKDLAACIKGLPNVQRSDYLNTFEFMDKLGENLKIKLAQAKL
Experiment: IDH1 R132C enzymatic assay (NADPH depletion coupled to diaphorase/resazurin)
Assay type: biochemical
Conditions: IDH1 R132C enzymatic inhibition, IC50 class
Method: Assays were conducted in a 1536-well black solid-bottom plate with a final assay volume of 9 μL. For IDH1 R132C, 3 μL of enzyme (0.00032 mg/mL IDH1 […], 10% glycerol, 50 mM potassium phosphate pH 6.5, 5 mM MgCl2, 0.03% BSA) were added to the plate, followed by the addition of 23 nL of test compound in DMSO. […]

Please review the following examples before continuing.
CCc1cccc(CC)c1-n1c2c(cc(-c3nc(-c4ccccc4F)cs3)c1=O)C(=O)CC(C)(C)C2 : 1000 to 5000 nM
CCc1cccc(CC)c1-n1c(C(C)C)c(C(=O)N2CCN[C@H](C(=O)OC)C2)cc(-c2nc(-c3ccc(Cl)cc3)cs2)c1=O : 1000 to 5000 nM
CCc1cccc(CC)c1-n1c(C2CCCC2)c(C(=O)N2CCNCC2)cc(-c2nc(-c3ccc(Cl)cc3)cs2)c1=O : < 300 nM
CCc1ncc(C)cc1-n1c(C=C(C)C)c(C(=O)N2CCNCC2)cc(-c2nc(-c3ccc(Cl)cc3)cs2)c1=O : 300 to 1000 nM
CCc1cccc(CC)c1-n1c(C)c(C(=O)OC)cc(-c2nc(-c3ccc(Cl)cc3)cs2)c1=O : 5000 to 20000 nM
CCc1cccc(CC)c1-n1c(CC(C)C)c(C(=O)N2CCNC(C)(CO)C2)cc(-c2nc(-c3ccc(Cl)cc3)cs2)c1=O (stereo not shown) : < 300 nM

Now look at this one.
Enquiry: IC50 for `CCc1cccc(CC)c1-n1c2c(cc(-c3nc(-c4ccc(C)nc4)c(C)s3)c1=O)C(=O)CC(C)(C)C2` ?
Return: 1000 to 5000 nM

----------
Target: IDH1 R132H (Homo sapiens, UniProt O75874, R132H)
Sequence (O75874 whole entry R132H): as the sequence (O75874 whole entry R132C) above, with C132H counted along it
Experiment: IDH1 R132H enzymatic assay (NADPH depletion coupled to diaphorase/resazurin)
Assay type: biochemical
Settings: IDH1 R132H enzymatic inhibition, IC50 class
pIC50: −log10 of the molar value.
Listing of entries alongside the reported pIC50.

COc1ccc(F)cc1-n1c2c(cc(-c3nc(-c4ccc(Cl)cc4)cs3)c1=O)C(=O)CCC2 : 5.30 to 6.00
COc1ccc(OC)c(-n2c(=O)c(-c3nc(-c4ccc(Cl)cc4)cs3)cc3c(OC)nccc32)c1 : 4.70 to 5.30
COc1ccc(OC)c(-n2c3c(cc(-c4c[nH]c(-c5ccccc5)n4)c2=O)C(=O)CC(C)(C)C3)c1 : 5.30 to 6.00

Now look at this one.
Enquiry: pIC50 for `COc1ccc(OC)c(-n2c(=O)c(-c3nc(-c4ccc(Cl)cc4)cs3)cc3c(O)cncc32)c1` ?
Return: < 4.70

----------
Biological target: IDH1 R132C (Homo sapiens, UniProt O75874, R132C)
Experiment: IDH1 R132C enzymatic assay (NADPH depletion coupled to diaphorase/resazurin)
Format: biochemical
Settings: IDH1 R132C enzymatic inhibition, IC50 class
Quantity: IC50

Please review the following examples before continuing.
COc1ccc(OC)c(-n2c3c(cc(-c4nc(-c5ccc(Cl)cc5)cs4)c2=O)C(=O)N(C(=O)OC(C)(C)C)CC3)c1 [Compound 23] : 5000 to 20000 nM
COc1ccc(OC)c(-n2c3c(cc(-c4nc(-c5ccc(Cl)cc5)c[nH]4)c2=O)C(=O)CC(C)(C)C3)c1 [Compound 291] : 1000 to 5000 nM

Now look at this one.
Enquiry: IC50 for CCc1cccc(CC)c1-n1c(CC(C)C)c(C(=O)NC[C@@H](N)C(=O)O)cc(-c2nc(-c3ccc(Cl)cc3)cs2)c1=O [Compound 172] ?
Return: < 300 nM

----------
Biological target: IDH1 R132H (Homo sapiens, UniProt O75874, R132H)
Assay: IDH1 R132H enzymatic assay (NADPH depletion coupled to diaphorase/resazurin)
Type: biochemical
Conditions: enzymatic inhibition, IDH1 R132H
pIC50: −log10 of the molar value.
Quantity: pIC50

Please review the following examples before continuing.
CCc1ncc(OC)cc1-n1c(C=C(C)C)c(C(=O)N2CCNCC2)cc(-c2nc(-c3ccc(Cl)cc3)cs2)c1=O [Compound 416] : > 6.52
CC(C)=Cc1c(C(=O)N2CCNCC2)cc(-c2nc(-c3ccc(Cl)cc3)cs2)c(=O)n1-c1cc(Cl)cnc1OC(C)C [Compound 602] : > 6.52
CCc1cccc(CC)c1-n1c2c(cc(-c3nc(-c4ccc(Cl)cc4)cs3)c1=O)C(=O)OC(C)(C)C2 [Compound 475] : 6.00 to 6.52
COc1cccc(OC)c1-n1c(CC(C)C)c(C(=O)N2CCNCC2)cc(-c2nc(-c3ccc(Cl)cc3)cs2)c1=O [Compound 461] : > 6.52
CCc1cccc(CC)c1-n1c(CC(C)C)c(C(=O)N2CCNCC2)cc(-c2ccnc(-c3ccc(Cl)cc3)n2)c1=O [Compound 417] : 6.00 to 6.52

Enquiry: What measured pIC50 is associated with CCc1cccc(CC)c1-n1c(C=C(C)C)c(C(=O)N2CCNCC2)cc(-c2nc(-c3ccc(C(F)(F)F)cc3)cs2)c1=O [Compound 581] on IDH1 R132H (Homo sapiens, UniProt O75874, R132H)?
Return: > 6.52

Enquiry: Repeat with CCc1cccc(C)c1-n1c2c(cc(-c3nc(-c4ccccc4)cs3)c1=O)C(=O)CCC2 [Compound 543]
Return: 4.70 to 5.30

Enquiry: Repeat with CCc1cccc(CC)c1-n1c2c(cc(-c3nc(-c4ccc(Cl)cc4)cs3)c1=O)C(=O)CCC2 [Compound 525]
Return: 5.30 to 6.00

Enquiry: Repeat with CCc1cccc(CC)c1-n1c(C=C(C)C)c(C(=O)N2CCN[C@@H](C)C2)cc(-c2nc(-c3ccc(C(F)(F)F)cc3)cs2)c1=O [Compound 425]
Return: > 6.52

----------
Target: IDH1 R132C (Homo sapiens, UniProt O75874, R132C)
Assay: IDH1 R132C enzymatic assay (NADPH depletion coupled to diaphorase/resazurin)
Assay type: biochemical
Conditions: enzymatic inhibition, IDH1 R132C
pIC50: −log10 of the molar value.
Quantity: pIC50

Please review the following examples before continuing.
CCc1cccc(CC)c1-n1c(CC(C)C)c(C(=O)N2CCNCC2)cc(-c2nc(-c3ccc(C(=O)N(C)C)cc3)c(C)s2)c1=O : 5.30 to 6.00
CCc1cccc(CC)c1-n1c(C(CC)OC)c(C(=O)N2CCNCC2)cc(-c2nc(-c3ccc(Cl)cc3)cs2)c1=O (centres unmarked) : 6.00 to 6.52
COc1cccc(OC)c1-n1c(C=C(C)C)c(C(=O)N2CCNCC2)cc(-c2nc(-c3ccc(Cl)cc3)cs2)c1=O : > 6.52
CCc1cccc(CC)c1-n1c(CC(C)C)c(C(=O)N2CCNCC2)cc(-c2ccn(Cc3ccc(Cl)cc3)n2)c1=O : < 4.70
CCc1ncc(OC)cc1-n1c(C=C(C)C)c(C(=O)N2CCNCC2)cc(-c2nc(-c3ccc(C(F)F)cn3)cs2)c1=O : 4.70 to 5.30
CCc1ccccc1-n1c(C=C(C)C)c(C(=O)N2CCNCC2)cc(-c2nc(-c3ccc(Cl)cc3)cs2)c1=O : > 6.52
CCOc1ncc(Cl)cc1-n1c(C=C(C)C)c(C(=O)N2CCNCC2)cc(-c2nc(-c3ccc(C(F)(F)F)nc3)cs2)c1=O : 6.00 to 6.52
COc1ncccc1-n1c(C=C(C)C)c(C(=O)N2CCNCC2)cc(-c2nc(-c3ccc(Cl)cc3)cs2)c1=O : > 6.52

Enquiry: pIC50 for `CCc1ccc(F)cc1-n1c(C=C(C)C)c(C(=O)N2CCNCC2)cc(-c2nc(-c3ccc(C(F)(F)F)cc3)cs2)c1=O` ?
Return: > 6.52

Enquiry: Repeat with `CCc1cccc(CC)c1-n1c(C=C(C)C)c(C(=O)N2C[C@H]3C[C@@H]2CN3)cc(-c2nc(-c3ccc(Cl)cc3)cs2)c1=O`
Return: > 6.52

Enquiry: Repeat with `CC(C)=Cc1c(C(=O)N2CCNCC2)cc(-c2nc(-c3ccc(Cl)cc3)cs2)c(=O)n1-c1ccccc1OCC(F)(F)F`
Return: > 6.52

Enquiry: Repeat with `CCc1cccc(CC)c1-n1c(CC(C)C)c(C(=O)N2CCNCC2)cc(-c2nc(-c3ccc(Cl)cc3OC)c(C)s2)c1=O`
Return: 6.00 to 6.52

Enquiry: Repeat with `Cc1cccc(CO)c1-n1c2c(cc(-c3nc(-c4ccc(Cl)cc4)cs3)c1=O)C(=O)CCC2`
Return: 5.30 to 6.00

Enquiry: Repeat with `O=C1CCCc2c1cc(-c1nc(-c3ccc(Cl)cc3)cs1)c(=O)n2-c1ccccc1CCO`
Return: 4.70 to 5.30
